- ASSAYED SYSTEM: GSK3α (GST-full length GSK3α) (Homo sapiens (Human), UniProt P49840)
- Sequence (P49840 whole entry): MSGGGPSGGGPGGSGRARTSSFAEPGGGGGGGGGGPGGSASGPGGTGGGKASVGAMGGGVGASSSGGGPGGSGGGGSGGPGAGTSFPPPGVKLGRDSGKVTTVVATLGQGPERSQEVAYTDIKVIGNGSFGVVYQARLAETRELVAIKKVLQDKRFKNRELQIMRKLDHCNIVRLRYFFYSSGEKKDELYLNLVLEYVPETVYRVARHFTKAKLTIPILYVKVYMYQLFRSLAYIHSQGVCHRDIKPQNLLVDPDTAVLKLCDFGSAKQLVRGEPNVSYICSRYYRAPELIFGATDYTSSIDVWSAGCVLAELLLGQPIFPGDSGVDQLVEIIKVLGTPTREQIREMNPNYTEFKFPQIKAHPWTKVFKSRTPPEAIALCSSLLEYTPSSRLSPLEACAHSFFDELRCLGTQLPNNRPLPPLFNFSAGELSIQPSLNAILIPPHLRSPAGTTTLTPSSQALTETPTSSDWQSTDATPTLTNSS
- METHOD NOTES: GSK3α TR-FRET kinase assay
- Type: biochemical
- SETTINGS: 1 nM GSK3α, 4 μM ATP, 30 minute preincubation, Table 16; read-out: GSK3-A TR-FRET BIOCHEMICAL (TR-FRET)
pIC50: −log10 of the molar value.
PARAMETER: pIC50

{"columns": ["COMPOUND", "pIC50"],
 "data": [
  ["CC[C@@]1(c2ccccc2)C2=C(Nc3n[nH]cc31)[C@H]1CC[C@H](C1)C2=O", "6.00 to 7.00"],
  ["CCN(c1cccc([C@@]2(CC)C3=C(CC(C)(C)CC3=O)Nc3n[nH]cc32)c1)c1ncccn1", "6.00 to 7.00"],
  ["CCn1nccc1-c1cccc(C2(CC)C3=C(CC(C)(C)CC3=O)Nc3n[nH]cc32)c1 (stereo not shown)", "6.00 to 7.00"],
  ["COCc1cccc(S(=O)(=O)N2CCC3(CC2)C2=C(CC(C)(C)CC2=O)Nc2n[nH]cc23)c1", "≥ 7.00"],
  ["CC1(C)CC(=O)C2=C(C1)Nc1n[nH]cc1C21CCN(S(=O)(=O)c2ccc(F)cn2)CC1", "6.00 to 7.00"],
  ["CCC1(c2cccc(-c3cnc(C)n3C)c2)C2=C(CC(C)(C)CC2=O)Nc2n[nH]cc21 (stereo not shown)", "≥ 7.00"],
  ["CCC1(c2cccc(C(C)c3ncccn3)c2)C2=C(CC(C)(C)CC2=O)Nc2n[nH]cc21 (stereo not shown) [Compound 948061]", "6.00 to 7.00"],
  ["O=C1CC2(CSC2)CC2=C1C1(CCCC1)c1c[nH]nc1N2", "6.00 to 7.00"],
  ["C[C@H]1C[C@]2(CCO1)C1=C(CC(C)(C)CC1=O)Nc1n[nH]cc12", "6.00 to 7.00"],
  ["CC1(C)CC(=O)C2=C(C1)Nc1n[nH]cc1[C@]21CCO[C@H](C(C)(C)C)C1", "6.00 to 7.00"]
]}

I have 6 compounds here; please give me pIC50 for each one.
1. CC1(C)CC(=O)C2=C(C1)Nc1n[nH]cc1C21CCN(S(=O)(=O)c2cnccc2C(F)(F)F)CC1
2. CCC1(c2cccc(-c3cnco3)c2)C2=C(CC(C)(C)CC2=O)Nc2n[nH]cc21 (stereo not shown)
3. CC1(C)CC(=O)C2=C(C1)Nc1n[nH]cc1C21COC1
4. C[C@H]1CC[C@]2(C1)C1=C(CC(C)(C)CC1=O)Nc1n[nH]cc12
5. CCC1(c2cccc(-c3ccnn3C)c2)C2=C(CC(C)(C)CC2=O)Nc2n[nH]c(C(F)(F)F)c21 (stereo not shown) [Compound 947365]
6. CCC1(c2cccc(-c3cncn3C(C)C)c2)C2=C(CC(C)(C)CC2=O)Nc2n[nH]cc21 (stereo not shown)

Completion:
≥ 7.00
≥ 7.00
6.00 to 7.00
6.00 to 7.00
6.00 to 7.00
≥ 7.00

###

- ASSAYED SYSTEM: GSK3α (GST-full length GSK3α) (Homo sapiens (Human), UniProt P49840)
- METHOD NOTES: GSK3α TR-FRET kinase assay
- Assay type: biochemical
- SETTINGS: GSK3-A (TR-FRET 1 mM ATP); GMean; IC50, 1 mM ATP; geometric mean
- Method: TR-FRET Assay: The assay was performed in a white, 384 well, low volume, flat bottom plate (Grenier). After a 30 minute preincubation in assay buffer with the indicated concentration of compound, the kinase activity was initiated by the addition of the substrates. […] After 60 min at room temperature the plate was read on Envision plate reader using Ex: 340 nm, Em: 615 nm and […]. The normalized 665/615 Signal ratio versus log compound concentration was analyzed by XLFIT to yield IC50 values.
PARAMETER: IC50

Here are 2 compounds together with their reported answers.
{"columns": ["COMPOUND", "IC50"],
 "data": [
  ["CC1(C)CC(=O)C2=C(Nc3n[nH]cc3C23CCN(S(=O)(=O)c2cccc(C(F)(F)F)c2)CC3)[C@@H]1F [Compound 951703]", "100 to 1000 nM"],
  ["CC1(C)CC(=O)C2=C(C1)Nc1n[nH]cc1C21CCN(S(=O)(=O)Cc2ccccc2)CC1 [Compound 929437]", "≤ 100 nM"]
]}

I have 8 compounds here; please give me IC50 for each one.
1. CCC1(c2cccc(-c3cn(C)nc3C)c2)C2=C(Nc3n[nH]cc31)C(F)C(C)(C)CC2=O (single isomer, unassigned) [Compound 947651]
2. CC1(C)CC2=C(C(=O)N1)[C@](C)(c1cccc(S(C)(=O)=O)c1)c1c(n[nH]c1C1CC1)N2 [Compound 114744]
3. Cn1cc(S(=O)(=O)N2CC[C@@]3(C2)C2=C(CC(C)(C)CC2=O)Nc2n[nH]cc23)cn1 [Compound 951726]
4. CC1(C)CC(=O)C2=C(C1)Nc1n[nH]cc1C21CCN(S(=O)(=O)c2cccc(Cl)c2)CC1 [Compound 947243]
5. CC1(C)CC(=O)C2=C(C1)Nc1n[nH]cc1[C@]21CCN(S(=O)(=O)CC2CC2)C1 [Compound 951723]
6. CC1(C)CC2=C(C(=O)N1)C1(CCN(S(=O)(=O)C3CCCC3)CC1)c1c[nH]nc1N2 [Compound 943960]
7. CC(C)S(=O)(=O)N1CCC2(CC1)C1=C(CC(C)(C)CC1=O)Nc1n[nH]cc12 [Compound 913129]
8. CC1(C)CC(=O)C2=C(C1)Nc1n[nH]cc1[C@]21CCN(S(=O)(=O)c2ccccc2)C1 [Compound 951787]

Completion:
1. ≤ 100 nM
2. > 5000 nM
3. 1000 to 5000 nM
4. 100 to 1000 nM
5. ≤ 100 nM
6. 100 to 1000 nM
7. ≤ 100 nM
8. ≤ 100 nM

###

For each entry below, report its pIC50 value.
- ASSAYED SYSTEM: GSK3b (GST-full length GSK3b) (Homo sapiens (Human), UniProt P49841)
- Sequence (P49841 whole entry): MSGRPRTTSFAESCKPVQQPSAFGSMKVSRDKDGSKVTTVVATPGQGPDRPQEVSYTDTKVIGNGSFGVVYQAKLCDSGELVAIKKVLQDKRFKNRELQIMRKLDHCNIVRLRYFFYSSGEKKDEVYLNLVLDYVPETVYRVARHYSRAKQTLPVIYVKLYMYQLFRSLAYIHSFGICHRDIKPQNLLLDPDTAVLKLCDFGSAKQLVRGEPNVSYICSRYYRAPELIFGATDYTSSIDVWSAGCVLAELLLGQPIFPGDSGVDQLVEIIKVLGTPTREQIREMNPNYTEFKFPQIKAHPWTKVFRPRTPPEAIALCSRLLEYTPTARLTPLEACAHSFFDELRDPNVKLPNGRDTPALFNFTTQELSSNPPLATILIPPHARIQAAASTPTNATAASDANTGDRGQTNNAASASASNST
- METHOD NOTES: GSK3b TR-FRET kinase assay
- Assay type: biochemical
- SETTINGS: 1 nM GSK3b, 2 μM ATP, 30 minute preincubation, Table 16; read-out: GSK3-B TR-FRET BIOCHEMICAL (TR-FRET)
pIC50: −log10 of the molar value.

Here are 3 molecules together with their reported answers.
{"columns": ["MOLECULE", "ASSAYED SYSTEM", "RESULT"],
 "data": [
  ["CCCn1nccc1-c1cccc(C2(CC)C3=C(CC(C)(C)CC3=O)Nc3n[nH]cc32)c1 (stereo not shown) [Compound 946093]", "GSK3b (GST-full length GSK3b) (Homo sapiens (Human), UniProt P49841)", "≥ 7.00"],
  ["CCC1(c2cccc(-c3ccnc(C)c3C)c2)C2=C(CC(C)(C)CC2=O)Nc2n[nH]cc21 (stereo not shown) [Compound 943517]", "GSK3b (GST-full length GSK3b) (Homo sapiens (Human), UniProt P49841)", "< 5.30"],
  ["CC1(C)CC(=O)C2=C(C1)Nc1n[nH]cc1[C@@]21CCN(S(C)(=O)=O)C1 [Compound 942462]", "GSK3b (GST-full length GSK3b) (Homo sapiens (Human), UniProt P49841)", "≥ 7.00"]
]}

I have 4 molecules here; please give me pIC50 for each one.
1. CCC1(c2cccc(C(F)(F)F)c2)C2=C(CN(Cc3ccccc3)C2=O)Nc2n[nH]cc21 (stereo not shown) [Compound 917159]
2. CC1(C)CC(=O)C2=C(C1)Nc1n[nH]cc1C21CCN(S(=O)(=O)c2cnn3c2OCCC3)CC1 [Compound 947483]
3. COc1ccc(S(=O)(=O)N2CCC3(CC2)C2=C(CC(C)(C)CC2=O)Nc2n[nH]cc23)cc1F [Compound 947478]
4. Cc1[nH]nc2c1C1(CCCCC1)C1=C(CC(C)(C)CC1=O)N2 [Compound 883865]

Completion:
1. 6.00 to 7.00
2. ≥ 7.00
3. ≥ 7.00
4. 6.00 to 7.00

###

- ASSAYED SYSTEM: UniProt:P49841
- METHOD NOTES: GSK3b TR-FRET kinase assay
- Format: biochemical
- SETTINGS: 1 nM GSK3b, 2 μM ATP, 30 minute preincubation, Table 16; read-out: GSK3-B TR-FRET BIOCHEMICAL (TR-FRET)
- Procedure: TR-FRET Assay: The assay was performed in a white, 384 well, low volume, flat bottom plate (Grenier). After a 30 minute preincubation in assay buffer with the indicated concentration of compound, the kinase activity was initiated by the addition of the substrates. […] After 60 min at room temperature the plate was read on Envision plate reader using Ex: 340 nm, Em: 615 nm and […]. The normalized 665/615 Signal ratio versus log compound concentration was analyzed by XLFIT to yield IC50 values.
PARAMETER: IC50

I have 4 compounds here; please give me IC50 for each one.
1. CC[C@]1(c2cccc(-c3cncn3C)c2)C2=C(CC(C)(C)CC2=O)Nc2n[nH]cc21
2. CC[C@@]1(c2cccc(-c3ccnn3C)c2)C2=C(CC(C)(C)CC2=O)Nc2n[nH]c(C(F)(F)F)c21
3. CC1(C)CC(=O)C2=C(C1)Nc1n[nH]cc1C21CSC1
4. CC[C@@]1(c2ccccc2)C2=C(Nc3n[nH]cc31)[C@@H](F)C(C)(C)CC2=O

Completion:
1: ≤ 100 nM; 2: ≤ 100 nM; 3: 100 to 1000 nM; 4: > 5000 nM

I have 3 compounds here; please give me IC50 for each one.
1. CC1(C)CC(=O)C2=C(C1)Nc1n[nH]cc1C21CN(CC(F)(F)F)C1
2. CCC1(c2cccc(-c3ccncc3F)c2)C2=C(CC(C)(C)CC2=O)Nc2n[nH]c(C(F)(F)F)c21 (stereo not shown)
3. CC[C@]1(c2cccc(-c3ccncc3C)c2)C2=C(CC(C)(C)CC2=O)Nc2n[nH]c(C(F)(F)F)c21

Completion:
1: 100 to 1000 nM; 2: ≤ 100 nM; 3: ≤ 100 nM
